Test system: IGROV1 ovarian
Experiment: NCI-60 one-dose screen, 48 h
Measurement context: 10 µM unless noted
Compounds without any hit were thinned out: in the full panel of roughly 83,000, 20% have a hit. Activity calls are given as the source filed them. How the source made its calls: active means growth percent below 10; inactive means the rest.
Outcomes: 1 (active), -1 (inactive)

>  <Compound>
CCOC(=O)C1=C(C)Nc2nc3ccccc3n2C1c1ccccc1 (configuration not stated)

>  <Category label>
-1

$$$$
>  <Compound>
CS(=O)(=O)c1nccc(-c2c(-c3ccc(F)c(OCCc4ccccc4)c3)nc3sccn23)n1

>  <Category label>
-1

$$$$
>  <Compound>
CN1CCN(c2nc(-c3cnc4ccccc4n3)cc3ccccc23)CC1

>  <Category label>
-1

$$$$
>  <Compound>
CCCCCCCCNC(=O)c1ccc(Cn2c(CCCC)nc3c(N)nc4ccccc4c32)cc1

>  <Category label>
1

$$$$
>  <Compound>
O=C(Nc1cc(F)cc2cccnc12)c1cnc(N2CCOCC2)cn1

>  <Category label>
-1

$$$$
>  <Compound>
CCOC(=O)c1c(NCC(=O)Nc2cccc([N+](=O)[O-])c2)sc2c1CCCC2

>  <Category label>
1

$$$$
>  <Compound>
COc1cnc2c(c1)C(=O)c1c-2n(CCCn2ccnc2)c(=O)c2cc(OC)c(OC)cc12

>  <Category label>
1

$$$$
>  <Compound>
O=C(CN1CCN(c2cc(=O)n(-c3ccccc3)c3ccccc23)CC1)Nc1ccc([N+](=O)[O-])cc1

>  <Category label>
-1

$$$$
>  <Compound>
CNC(=O)c1c(NC(=O)c2ccc(F)cc2F)sc2c1CCC(=O)C2

>  <Category label>
-1

$$$$
>  <Compound>
NS(=O)(=O)c1ccc(Nc2nc(N/N=C/c3ccc(F)cc3)nc(Nc3ccccc3)n2)cc1

>  <Category label>
-1

$$$$
>  <Compound>
CCN(CC)Cc1c(-c2cccc(OC(F)(F)F)c2)[nH]c2ccc(N3CCCC3)cc2c1=O

>  <Category label>
-1

$$$$
>  <Compound>
COc1ccc(NC(=O)[C@H](C)N)cc1C(=O)Nc1cccc(-c2cc(=O)c3c(OC)c(OC)c(OC)cc3o2)c1

>  <Category label>
-1

$$$$
>  <Compound>
COc1ccc(/C=N\NC(=O)c2ccc3nc(-c4ccc(Br)cc4)[nH]c3c2)cc1

>  <Category label>
-1

$$$$
>  <Compound>
COc1ccccc1/C=C/C=N/NC1=NC2C(S1)N(C)C(=O)N2c1ccccc1 (configuration not stated)

>  <Category label>
-1

$$$$
>  <Compound>
N#Cc1c(-c2cccs2)cc(-c2cnccn2)nc1SCC(=O)NNC(=S)Nc1ccc(F)cc1

>  <Category label>
-1

$$$$
>  <Compound>
CC(=O)NC(C)(C)C(=O)N1CCC[C@H]1C(=O)NC(C)(C)C(=O)N[C@@H](C)C(=O)NC(C)(C)C(=O)N[C@@H](C)C(=O)N[C@@H](CCC(N)=O)C(=O)NC(C)(C)C(=O)N[C@H](C(=O)NC(C)(C)C(=O)NCC(=O)N[C@@H](CC(C)C)C(=O)NC(C)(C)C(=O)N1CCC[C@H]1C(=O)N[C@H](C(=O)NC(C)(C)C(=O)NC(C)(C)C(=O)N[C@@H](CCC(N)=O)C(=O)N[C@@H](CCC(N)=O)C(=O)N[C@H](CO)Cc1ccccc1)C(C)C)C(C)C

>  <Category label>
-1

$$$$
>  <Compound>
CC(=O)NC(C)(C)C(=O)N1CCC[C@H]1C(=O)NC(C)(C)C(=O)N[C@@H](C)C(=O)NC(C)(C)C(=O)NC(C)(C)C(=O)N[C@@H](CCC(N)=O)C(=O)NC(C)(C)C(=O)N[C@H](C(=O)NC(C)(C)C(=O)NCC(=O)N[C@@H](CC(C)C)C(=O)NC(C)(C)C(=O)N1CCC[C@H]1C(=O)N[C@H](C(=O)NC(C)(C)C(=O)NC(C)(C)C(=O)N[C@@H](CCC(N)=O)C(=O)N[C@@H](CCC(N)=O)C(=O)N[C@H](CO)Cc1ccccc1)C(C)C)C(C)C

>  <Category label>
-1

$$$$
>  <Compound>
COc1cc2c3c(n(CCCNC4CCC4)c(=O)c2cc1OC)-c1cc2c(cc1C3=O)OCO2

>  <Category label>
1

$$$$
>  <Compound>
N#C/C(=C\c1ccc(N2CCCCC2)cc1)C(=O)Nc1sc2c(c1C#N)CCC2

>  <Category label>
-1

$$$$
>  <Compound>
CN(C)C(=O)C1=NC(CO)C(=O)N(c2ccc(Cl)cc2)N1 (configuration not stated)

>  <Category label>
-1

$$$$
>  <Compound>
CC1(C)CC[C@]2(C(=O)O)CC[C@]3(C)C(=CCC4[C@@]5(C)C[C@@H](O)[C@@H]6OC(c7cccc([N+](=O)[O-])c7)OC[C@@]6(C)C5CC[C@]43C)C2C1 (some centres not stated)

>  <Category label>
-1

$$$$
>  <Compound>
Cc1ccc(Cc2cnc(NC(=O)/C(C#N)=C/c3ccc(-c4ccc(Cl)cc4)o3)s2)cc1

>  <Category label>
-1

$$$$
>  <Compound>
N#C/C(=C\c1ccc2ccccc2c1)C(=O)Nc1sc2c(c1C#N)CCC2

>  <Category label>
-1

$$$$
>  <Compound>
COc1ccc2c(ccn2C(=O)N2c3ccccc3Sc3ccccc32)c1

>  <Category label>
-1

$$$$
>  <Compound>
COc1cc(C2CC(c3ccc(Nc4nc(NCCO)nc(Nc5ccc(Cl)cc5)n4)cc3)=Nc3c(N)nc(N)nc3N2)cc(OC)c1OC (configuration not stated)

>  <Category label>
-1

$$$$
>  <Compound>
C#C[C@]1(O)CC[C@H]2[C@@H]3CC=C4c5sc(Nc6cccc(Cl)n6)nc5CC[C@]4(C)[C@H]3CC[C@@]21C

>  <Category label>
-1

$$$$
>  <Compound>
N/C(=N\c1nc2ccc([N+](=O)[O-])cc2s1)C(Cl)(Cl)Cl

>  <Category label>
-1

$$$$
